# Format: in vivo, human
# condition.details: human, plasma, 10 mg
quantity.measured: Cmax (ng/mL)

Br.Cc1ccc(Sc2ccccc2N2CCNCC2)c(C)c1 [Vortioxetine] : 13.8

* * *

# Format: in vivo, human
# condition.details: human, plasma, 40 mg
quantity.measured: AUC(0-inf) (ng·h/mL)

COc1ccc2[nH]c([S+]([O-])Cc3ncc(C)c(OC)c3C)nc2c1 (stereo not shown) : 1110

* * *

# Assay type: in vivo, human
# condition.details: female, human, plasma, oral, AUC24, least-squares mean, concomitant agent alone (reference): placebo + EE/L 30/150 μg for 21 days, plasma, day 21
quantity.measured: AUC (ng·h/mL)

C#C[C@]1(O)CC[C@H]2[C@@H]3CCc4cc(O)ccc4[C@H]3CC[C@@]21C : 0.857
C#C[C@]1(O)CC[C@H]2[C@@H]3CCC4=CC(=O)CC[C@@H]4[C@H]3CC[C@@]21CC : 86.8
